Biological target: T1, recombinant human IL-12 (human, UniProt P29459 23-219; P29460 23-328)
T1 chain 1: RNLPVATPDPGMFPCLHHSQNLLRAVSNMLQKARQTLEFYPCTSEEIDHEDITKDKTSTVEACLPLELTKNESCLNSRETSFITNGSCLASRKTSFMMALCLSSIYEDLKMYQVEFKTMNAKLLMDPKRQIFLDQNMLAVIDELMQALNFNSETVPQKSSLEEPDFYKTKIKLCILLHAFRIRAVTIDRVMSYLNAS
T1 chain 2: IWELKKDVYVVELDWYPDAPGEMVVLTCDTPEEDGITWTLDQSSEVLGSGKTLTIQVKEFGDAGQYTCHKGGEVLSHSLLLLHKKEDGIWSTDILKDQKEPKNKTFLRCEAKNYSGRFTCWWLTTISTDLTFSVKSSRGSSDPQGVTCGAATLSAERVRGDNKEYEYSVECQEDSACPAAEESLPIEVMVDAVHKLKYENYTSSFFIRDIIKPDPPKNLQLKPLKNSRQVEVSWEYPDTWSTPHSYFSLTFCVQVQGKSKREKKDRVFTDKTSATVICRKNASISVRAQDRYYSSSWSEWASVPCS
Test: Biacore
Decide using koff: a value greater than or equal to 0.002 s⁻¹ is met, a smaller one is not met.

## Task koff >= 0.002 s⁻¹ for P23IL 3F11 (VHH) VHH: EVQLVESGGGLVQAGGSLRLSCAASGSIFSINAMGWFRQAPGKERQFVAAINWSTGSTYYSDSVKGRFTISRDNAKNTVYLQMNSLKPEDTAVYFCASGYLFPSSRGSQYDYWGQGTQVTVSS ?
## Result not met

## Task Okay, and P23IL3G10 (VHH) VHH: EVQLVESGGGVVQAGESLRLSCAASGYNVKDYEMGWFRQAPGMEREFAAAISWRGSSTYYADSVKGRFTISRDNAKNTVYLQMSSLKPEDTAVYYCAAGRLYPSSRSRDYDYWGQGTQVTVSS ?
## Result met

## Task Okay, and P23IL81E10 (VHH) VHH: EVQLVESGGGLVQAGGSLRLSCVASGRTFNTYGMGWFRQAPGKEREFVAANNWSGGATSYADSVKGRFTISRDNAKNTVFLQMNTLKPEDTAVYYCAAADRGGGWLVVRENDYDYWGQGTQVTVSS ?
## Result met

## Task Okay, and P23IL3C1 (VHH) VHH: EVQLVESGGGSVQAGGSLRLSCKVSGIMFSDKGMGWFRQAPGKERETVAATNWSGGSTYYADSVKGRFTISRDNYKNTLHLQMASLKPEDTGIYYCAAAGDSWNSRRIEDYDYWGQGTPVTVSS ?
## Result not met

## Task Okay, and P23IL3B8 (VHH) VHH: EVQLVESGGGLVQPGGSLRLSCAASGFTFSSSVMFWLRQAPGKGLEWLSTIKPTGSTIYPGSGKGRFTISRDNAKNTLYLQINNLKPEDTALYYCARDIGGTVRGQGTQVTVSS ?
## Result met
